This collection of values is drawn from ChEMBL document CHEMBL3045119.

Test system: Fusarium graminearum
Assay: Fungicidal activity against Fusarium graminearum assessed as inhibition of mycelium growth at 50 ug/mL by mycelium growth rate method
Format: functional
experimental readout: inhibition at 50 µg/mL (%)
Give the value in % but do not write % after it.

Example entries begin here.
[
  {
    "smiles str": "CCOC(=O)c1cccc2nc3cc(N)ccc3nc12",
    "tested on": "Fusarium graminearum",
    "inhibition at 50 µg/mL, %": 11.3
  },
  {
    "smiles str": "COC(=O)c1cccc2nc3c(NC(=O)CCCCl)c([N+](=O)[O-])ccc3nc12",
    "tested on": "Fusarium graminearum",
    "inhibition at 50 µg/mL, %": 40.4
  },
  {
    "smiles str": "COC(=O)c1cccc2nc3cc(S(=O)(=O)c4ccc(C)cc4)ccc3nc12",
    "tested on": "Fusarium graminearum",
    "inhibition at 50 µg/mL, %": 17.5
  }
]

Exercise: Assign inhibition at 50 µg/mL to the following record: CCCCOC(=O)c1cccc2nc3c(NC(=O)CCCCl)c([N+](=O)[O-])ccc3nc12
Key: 51.5

Exercise: Give a short answer stating reported inhibition at 50 µg/mL for CCCCOC(=O)c1cccc2nc3c(C(=O)CCCCl)cccc3nc12 .
Key: 0
